Target: farnesyl protein transferase (K-ras) (Homo sapiens, UniProt P49354+P49356)
Experiment: FPT IC50 (K-ras), inhibition of farnesyl protein transferase, in vitro enzyme assay
quantity: IC50 (nM)
Express the result in nM but write the number alone.

Solved cases below.
structure_smiles: O=C(CC1CCN(c2nc3ccccc3o2)CC1)N1CCC([C@H]2c3ncc(Br)cc3CCc3cc(Cl)cc(Br)c32)CC1
quantity: IC50
reported: 91
//
structure_smiles: O=C(CC1CCN(c2ccccn2)CC1)N1CCC([C@H]2c3ncc(Br)cc3CCc3cc(Cl)cc(Br)c32)CC1
quantity: IC50
reported: 29

Q. What measured IC50 goes with CC(=O)OC[C@H]1O[C@@H](N2CCC(CC(=O)N3CCC([C@H]4c5ncc(Br)cc5CCc5cc(Cl)cc(Br)c54)CC3)CC2)[C@H](OC(C)=O)[C@@H](OC(C)=O)[C@@H]1OC(C)=O ?
A. 40.9
